Test system: HT-29
Assay: Cytotoxicity against human HT-29 cells assessed as reduction in cell proliferation after 96 hrs by sulforhodamine B assay
Type: functional, cell-based
Settings: HT-29, 96 h
The following compounds are shown together with reported EC50 values.
Expressed in µM, but write only the number.

Answered examples (4):
CC(=O)O[C@H]1C[C@]2(C)[C@H]3CC=C4[C@@H]5CC(C)(C)CC[C@]5(NC(=O)Nc5ccccc5)CC[C@@]4(C)[C@]3(C)CC[C@H]2C(C)(C)[C@H]1OC(C)=O ... 2.3
CC(=O)O[C@H]1C[C@]2(C)[C@H]3CC=C4[C@@H]5CC(C)(C)CC[C@]5(NC(=O)Oc5ccccc5)CC[C@@]4(C)[C@]3(C)CC[C@H]2C(C)(C)[C@H]1OC(C)=O ... 8.5
CC(=O)O[C@H]1C[C@]2(C)[C@H]3CC=C4[C@@H]5[C@@H](C)[C@H](C)CC[C@]5(NC(=O)c5ccccc5)CC[C@@]4(C)[C@]3(C)CC[C@H]2C(C)(C)[C@H]1OC(C)=O ... 11.7
CC1(C)CC[C@]2(C(=O)NCc3ccccc3)CC[C@]3(C)C(=CC[C@@H]4[C@@]5(C)C[C@H]6OCO[C@@H]6C(C)(C)[C@@H]5CC[C@]43C)[C@@H]2C1 ... 20.8

Q: Field request: EC50 | item: CC(=O)O[C@H]1C[C@]2(C)[C@H]3CC=C4[C@@H]5CC(C)(C)CC[C@]5(C(=O)NCc5ccccc5)CC[C@@]4(C)[C@]3(C)CC[C@H]2C(C)(C)[C@H]1OC(C)=O
Ans: 3.7
